Measured values drawn from the supplement of paper PMC10065799 for this set.

Target System: FGFR1 (UniProt P11362)
Sequence (P11362 whole entry, looked up): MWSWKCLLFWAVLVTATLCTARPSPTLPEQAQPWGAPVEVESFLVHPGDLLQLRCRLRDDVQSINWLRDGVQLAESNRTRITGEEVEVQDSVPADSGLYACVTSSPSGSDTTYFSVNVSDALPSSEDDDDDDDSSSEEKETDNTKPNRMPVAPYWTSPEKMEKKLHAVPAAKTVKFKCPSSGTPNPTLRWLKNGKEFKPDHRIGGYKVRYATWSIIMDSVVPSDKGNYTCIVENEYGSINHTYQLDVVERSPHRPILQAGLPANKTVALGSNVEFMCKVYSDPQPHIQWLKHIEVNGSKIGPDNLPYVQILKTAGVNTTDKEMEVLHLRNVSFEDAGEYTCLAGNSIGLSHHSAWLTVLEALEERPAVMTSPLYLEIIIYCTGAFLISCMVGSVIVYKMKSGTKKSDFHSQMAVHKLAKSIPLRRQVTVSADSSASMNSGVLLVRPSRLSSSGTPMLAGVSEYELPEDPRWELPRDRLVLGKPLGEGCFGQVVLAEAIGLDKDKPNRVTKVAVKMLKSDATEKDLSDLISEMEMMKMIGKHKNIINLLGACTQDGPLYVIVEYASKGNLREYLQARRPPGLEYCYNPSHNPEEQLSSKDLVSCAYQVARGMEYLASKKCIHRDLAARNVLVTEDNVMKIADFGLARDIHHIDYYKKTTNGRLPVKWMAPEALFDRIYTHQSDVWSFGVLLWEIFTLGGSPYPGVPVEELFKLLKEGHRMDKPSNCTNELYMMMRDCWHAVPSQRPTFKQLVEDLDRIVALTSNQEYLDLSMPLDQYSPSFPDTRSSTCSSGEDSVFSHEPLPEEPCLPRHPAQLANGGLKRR
Assay Protocol: phosphorylation enrichment, bacterial display (enrichment ratio); higher = better substrate or ligand; peptides without Tyr show the background;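 note: 11-residue human phosphosite peptides and single-mutation variants displayed on the E. coli surface, counted by deep sequencing, each peptide's frequency after selection divided by its frequency in the unselected input library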;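 note: frequency after pTyr selection over input frequency; kinase dosed for 20-30% of maximal phosphorylation in three min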
Could you label it True if measured phosphorylation enrichment is 0.6 or higher, and False otherwise?

> print(dat)
                          item.sequence  class
 1          CLAKMYYSAVE [CP_Y539_D544E]   True
 2       YQKDVYNIPPS [NEDD9_Y177_D178N]   True
 3             EPTPGYEVGQR [TSC2_Y1788]  False
 4        LFSNAYLNDLA [ALDH1A1_Y119_YF]   True
 5        ERLWDCGMSSS [F8_Y1728_Y1728C]  False
 6             VSTAVYKRFPS [BEST1_Y148]  False
 7               YLEKYYKFGSR [NNMT_Y25]  False
 8            ASMAKYYASEI [ACADSB_Y372]  False
 9              RSACTYLASHL [PLK3_Y615]  False
10     TEDELYQLFLQ [RASGRP2_Y378_S381F]   True
11         ELELLYPDRNS [NYX_Y284_L285P]   True
12        NALVQYQEMEK [BBS4_Y395_A393V]  False
13  FSCLPCGRLAF [SLC52A2_Y305_Y305C_YF]   True
14         TFRPPYYHRDC [HGD_Y333_N337D]   True
15    GGFTCCCDGKK [PROS1_Y266_Y266C_YF]  False
16               ATRKAYGQALA [TKT_Y321]  False
17      RGRSTCFWPRP [GAGE12J_Y9_Y9C_YF]   True
18       EKHGQYLIGHG [EPHB4_Y581_D576E]  False
19                          STKELYEKYMI  False
20        SVTCTYSPAFN [TP53_Y126_L130F]  False
21              VNYGAYINDFK [GLB1_Y488]  False
22    VHLFAYDWISI [BEST1_Y227_G222V_YF]   True
23         YGSGNYNDFGN [HNRNPA2B1_Y300]   True
24     DFDNLYYWDQD [ERBB2_Y1221_A1216D]   True
25            AWVARYIFKRL [LPCAT3_Y348]  False
26            KRYRIYHLATS [BRCA2_Y3009]  False
27             KELSNYKHLTL [SLIT2_Y776]  False

* * *

Target System: Jak2 (UniProt O60674)
Sequence (O60674 whole entry, looked up): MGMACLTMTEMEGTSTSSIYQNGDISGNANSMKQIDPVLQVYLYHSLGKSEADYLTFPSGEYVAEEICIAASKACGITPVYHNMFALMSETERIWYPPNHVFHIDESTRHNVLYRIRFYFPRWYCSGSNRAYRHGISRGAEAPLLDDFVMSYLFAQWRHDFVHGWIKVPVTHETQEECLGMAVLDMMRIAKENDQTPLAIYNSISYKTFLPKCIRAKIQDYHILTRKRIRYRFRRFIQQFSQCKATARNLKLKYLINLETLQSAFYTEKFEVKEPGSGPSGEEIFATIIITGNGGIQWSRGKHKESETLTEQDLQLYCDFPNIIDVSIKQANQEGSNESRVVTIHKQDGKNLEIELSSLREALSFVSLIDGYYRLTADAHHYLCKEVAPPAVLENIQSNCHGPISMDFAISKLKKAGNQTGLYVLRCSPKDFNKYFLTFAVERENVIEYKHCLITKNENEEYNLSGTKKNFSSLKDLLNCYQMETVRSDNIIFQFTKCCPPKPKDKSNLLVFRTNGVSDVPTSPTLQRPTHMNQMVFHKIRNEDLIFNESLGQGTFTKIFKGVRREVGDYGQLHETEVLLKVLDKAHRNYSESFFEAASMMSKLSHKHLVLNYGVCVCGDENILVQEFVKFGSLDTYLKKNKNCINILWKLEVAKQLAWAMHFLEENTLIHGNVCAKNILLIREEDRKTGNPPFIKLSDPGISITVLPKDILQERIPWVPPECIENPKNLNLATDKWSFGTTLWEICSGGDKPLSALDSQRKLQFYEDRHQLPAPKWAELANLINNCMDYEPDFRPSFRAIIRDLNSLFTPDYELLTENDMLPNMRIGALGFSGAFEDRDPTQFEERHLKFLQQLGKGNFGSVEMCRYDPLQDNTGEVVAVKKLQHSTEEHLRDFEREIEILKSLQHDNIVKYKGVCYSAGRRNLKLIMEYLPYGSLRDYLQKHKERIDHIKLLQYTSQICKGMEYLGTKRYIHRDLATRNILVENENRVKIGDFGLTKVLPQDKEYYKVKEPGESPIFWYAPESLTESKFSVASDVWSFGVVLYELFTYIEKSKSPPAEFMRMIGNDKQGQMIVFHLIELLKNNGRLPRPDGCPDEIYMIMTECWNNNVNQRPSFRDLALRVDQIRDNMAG
Assay Protocol: phosphorylation enrichment, bacterial display (enrichment ratio); higher = better substrate or ligand; peptides without Tyr show the background
Could you label it class 1 if measured phosphorylation enrichment is 1 or higher, and class 0 otherwise?

> print(dat)
                           item.sequence    class
 1    PLQKTYNFNML [SLC4A1_Y553_V557M_YF]  class 0
 2             LHAAAYRNALA [UQCRC2_Y182]  class 0
 3         ADARMCGVLPW [PLP1_Y207_Y207C]  class 1
 4       RGRSTCFWPRP [GAGE12J_Y9_Y9C_YF]  class 1
 5           DGMADYSDPSF [CDC5L_Y459_YF]  class 1
 6              GPTLSYGRDGR [MATR3_Y158]  class 0
 7                PARLEYYENEK [IRS1_Y46]  class 1
 8           GSCQEYTGAPY [NAXD_Y85_G81S]  class 0
 9               DLAAQYTTVGR [SGSH_Y240]  class 0
10                HIPFRYPKEFQ [IDS_Y234]  class 0
11            IEDPFYGNDSD [ACP1_Y133_YF]  class 1
12              KVWGIYDCQQP [CYP3A7_Y75]  class 1
13  TGNGFYFRVFS [MYBPC3_Y1136_I1131T_YF]  class 1
14        RLLRGHDQSAY [HLA-C_Y137_Y137H]  class 0
15               ELPEKYSQNIY [PKP2_Y626]  class 0
16       IKGIRYLHHQG [GUCY2D_Y656_R660Q]  class 0
17              SHPSSYTTHPQ [NIPBL_Y195]  class 0
18             HRAVEYLLTGI [RAD23A_Y197]  class 0
19           EGDGVYTLNNK [HP_Y125_E130K]  class 0
20              NPQKSYFIRLF [WAS_Y83_YF]  class 1
21          AHPIIYEIIEA [PYKtide_E_2014]  class 1
22       AVRFIYTIDGS [DCX_Y105_G100A_YF]  class 1
23          TFINKYQGKLF [HGD_Y249_V245F]  class 0
24       LPKEQYLCTKE [AFG3L2_Y614_Y616C]  class 0
25              VLPIDYFFPPQ [AR_Y552_YF]  class 0
26        ILGRFYETSSI [PAX2_Y73_G76S_YF]  class 0
27        YMLYQYLKQIE [RPAP3_Y569_D564Y]  class 1
28            EREYKYGAHNH [OAT_Y50_Y55H]  class 0
